molecular target: T1, sLTβR (UniProt P36941 31-227, limits assumed); assay: SPR (Biacore 3000)
T1 construct: Used in solution in ITC and as the analyte in SPR; also called soluble lymphotoxin beta receptor; antigen
T1 sequence (P36941 31-227 limits assumed): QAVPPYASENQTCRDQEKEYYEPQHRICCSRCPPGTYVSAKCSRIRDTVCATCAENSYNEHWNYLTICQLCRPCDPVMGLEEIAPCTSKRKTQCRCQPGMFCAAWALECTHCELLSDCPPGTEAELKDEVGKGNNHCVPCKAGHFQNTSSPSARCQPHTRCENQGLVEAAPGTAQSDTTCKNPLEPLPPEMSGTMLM
quantity-name: Kd (nM)
Hi! Could you send only the number? It should be in nM, unit omitted.

Use these answered entries as a reference point.
>>> val("BHA10 (Gly4Ser)4 scFv (scFv, His-tagged (captured through anti-PENTA-His); also called Wild-type, (G4S)*4 linker; GS4) scFv: QVQLVQSGAEVKKPGSSVKVSCKASGYTFTTYYLHWVRQAPGQGLEWMGWIYPGNVHAQYNEKFKGRVTITADKSTSTAYMELSSLRSEDTAVYYCARSWEGFPYWGQGTTVTVSSGGGGSGGGGSGGGGSGGGGSDIQMTQSPSSLSASVGDRVTITCKASQNVGINVAWYQQKPGKAPKSLISSASYRYSGVPSRFSGSGSGTDFTLTISSLQPEDFATYFCQQYDTYPFTFGQGTKVEIK")
2.1
>>> val("BHA10 scFv VH-S16E, (G4S)4 linker (scFv, name in Kabat numbering, Positions are Kabat numbers of the VH domain; also called 074 VH-S16E; pIEH032) scFv: QVQLVQSGAEVKKPGESVKVSCKASGYTFTTYYLHWVRQAPGQGLEWMGWIYPGNVHAQYNEKFKGRVTITADKSTSTAYMELSSLRSEDTAVYYCARSWEGFPYWGQGTTVTVSSGGGGSGGGGSGGGGSGGGGSDIQMTQSPSSLSASVGDRVTITCKASQNVGINVAWYQQKPGKAPKSLISSASYRYSGVPSRFSGSGSGTDFTLTISSLQPEDFATYFCQQYDTYPFTFGQGTKVEIK")
2

Alright, here's another binder for you.
What measured Kd goes with conventional BHA10 scFv, VH-(Gly4Ser)3-VL (scFv, also called Wild-type, (G4S)*3 linker; WT) scFv: QVQLVQSGAEVKKPGSSVKVSCKASGYTFTTYYLHWVRQAPGQGLEWMGWIYPGNVHAQYNEKFKGRVTITADKSTSTAYMELSSLRSEDTAVYYCARSWEGFPYWGQGTTVTVSSGGGGSGGGGSGGGGSDIQMTQSPSSLSASVGDRVTITCKASQNVGINVAWYQQKPGKAPKSLISSASYRYSGVPSRFSGSGSGTDFTLTISSLQPEDFATYFCQQYDTYPFTFGQGTKVEIK ?
2.7
